# assay.info: Stability in 90% human serum assessed as drug degradation at 1 mM after 60 mins by HPLC analysis
# Type: ADME, cell-free
# particulars: read-out: Drug degradation
quantity.kind: metabolised at 1 h, 1000 µM

INSERT INTO results (smi, val) VALUES
  ('CC(C)C[C@H](NC(=O)[C@H](CO)NC(=O)[C@H](CC(=O)O)NC(=O)[C@H](CC(C)C)NC(=O)[C@H](CC(=O)O)NC(=O)[C@@H](NC(=O)[C@@H](N)CCCNC(=N)N)[C@@H](C)O)C(=O)N[C@@H](CCCNC(=N)N)C(=O)N[C@H](C(=O)O)[C@@H](C)O', '100%');

----------
# Species: Homo sapiens
# assay.info: Selectivity ratio of IC50 for human integrin alphavbeta6 receptor to IC50 for human integrin alphavbeta8 receptor
Non-standard residues stand in square brackets, D forms with d. Residues, ends and D or L forms follow the SMILES beside them.
quantity.kind: Ratio IC50

INSERT INTO assay_data (compound, quantity_kind, val) VALUES
  ('CC(C)C[C@@H]1NC(=O)[C@@H]2CCCN2C(=O)[C@H]2CCCN2C(=O)[C@H](CC(C)C)NC(=O)[C@H](CC(=O)O)NC(=O)CNC(=O)[C@H](CCCNC(=N)N)NC(=O)[C@H](C)NC1=O', 'Ratio IC50', 3.7),
  ('CC(C)C[C@@H]1NC(=O)CNC(=O)[C@@H]2CCCN2C(=O)[C@H]2CCCN2C(=O)[C@H](CC(C)C)NC(=O)[C@H](CC(=O)O)NC(=O)CNC(=O)[C@H](CCCNC(=N)N)NC1=O (cyclo(RGDL[dP]PGL))', 'Ratio IC50', 36),
  ('CC(C)C[C@@H]1NC(=O)[C@H](CC(=O)O)NC(=O)CNC(=O)[C@H](CCCNC(=N)N)NC(=O)[C@H](Cc2ccccc2)NC(=O)[C@H](C)NC(=O)[C@@H]2CCCN2C(=O)[C@H]2CCCN2C1=O', 'Ratio IC50', 44.1),
  ('CC(C)C[C@@H]1NC(=O)[C@H](C)NC(=O)[C@@H]2CCCN2C(=O)[C@@H](CCCCN)N(C)C(=O)[C@H](CC(C)C)NC(=O)[C@H](CC(=O)O)NC(=O)CNC(=O)[C@H](CCCNC(=N)N)NC1=O', 'Ratio IC50', 3.2),
  ('CC(C)C[C@@H]1NC(=O)[C@H](CC(=O)O)NC(=O)CNC(=O)[C@H](CCCNC(=N)N)NC(=O)[C@H](C)NC(=O)[C@H](C)NC(=O)[C@@H]2CCCN2C(=O)[C@H]2CCCN2C1=O', 'Ratio IC50', 14.1),
  ('CC(C)C[C@@H]1NC(=O)[C@H](CC(=O)O)NC(=O)CNC(=O)[C@H](CCCNC(=N)N)NC(=O)[C@H](C)NC(=O)[C@@H]2CCCN2C(=O)[C@H]2CCCN2C1=O (cyclo(ARGDL[dP]P))', 'Ratio IC50', 2.1),
  ('CC(C)C[C@@H]1NC(=O)[C@H](CO)NC(=O)[C@@H]2CCCN2C(=O)[C@H]2CCCN2C(=O)[C@H](CC(C)C)NC(=O)[C@H](CC(=O)O)NC(=O)CNC(=O)[C@H](CCCNC(=N)N)NC1=O (cyclo(RGDL[dP]PSL))', 'Ratio IC50', 15),
  ('CC(C)C[C@@H]1NC(=O)[C@H](CC(=O)O)NC(=O)CNC(=O)[C@H](CCCNC(=N)N)NC(=O)[C@H](c2ccccc2)NC(=O)[C@H](C)NC(=O)[C@@H]2CCCN2C(=O)[C@H]2CCCN2C1=O', 'Ratio IC50', 4.6),
  ('CC[C@H](C)[C@@H]1NC(=O)[C@H](C)NC(=O)[C@@H]2CCCN2C(=O)[C@H]2CCCN2C(=O)[C@H](CC(C)C)NC(=O)[C@H](CC(=O)O)NC(=O)CNC(=O)[C@H](CCCNC(=N)N)NC1=O', 'Ratio IC50', 26.1),
  ('CC(C)C[C@@H]1NC(=O)[C@H](CC(=O)O)NC(=O)[C@H]([C@@H](C)O)NC(=O)[C@H](CCCNC(=N)N)NC(=O)[C@H](Cc2ccccc2)NC(=O)[C@H](C)NC(=O)[C@@H]2CCCN2C(=O)[C@H]2CCCN2C1=O', 'Ratio IC50', 60);
